Tested on: purified tubulin
Construct: other: purified bovine brain tubulin 1.5 mg/ml, 15 min preincubati
assay_name: Inhibition of tubulin polymerization assay
Format: biochemical, bovine
experimental_conditions: read-out: IC50, in vitro inhibition of tubulin polymerization; purified bovine brain tubulin 1.5 mg/ml, 15 min preincubation at 37° C., GTP-induced, 350 nm
measured_endpoint: IC50

Past entries and their recorded results:
[[record]]
compound = "CCOP(=O)(Nc1c(OC)ccc2c1CCC=C2c1cc(OC)c(OC)c(OC)c1)OCC [Compound 16]"
measured_target = "purified tubulin"
reported = "> 40 µM"

[[record]]
compound = "COc1ccc2c(c1)CCCC2(O)c1cc(OC)c(OC)c(OC)c1 (stereo not shown) [Compound 14A]"
measured_target = "purified tubulin"
reported = "1 to 4 µM"

[[record]]
compound = "COc1ccc2c(C(=O)c3cc(OC)c(OC)c(OC)c3)c(-c3ccc(OC)c(OP(=O)([O-])[O-])c3)sc2c1.[Na+].[Na+] [Compound 3]"
measured_target = "purified tubulin"
reported = "1 to 4 µM"


Kindly consider the entry below.
So for C#CC=CC#CC(=O)c1cc(OC)c(OC)c(OC)c1 [Compound 30] , the logged IC50 turned out to be 2 to 4 µM

Source of measurements: patent US6593374B2
